The values you see were collected from patent US20070213378A1.

Tested on: OCI-AML2
Test: Cell proliferation assay (WST-1 and/or Alamar Blue), OCI-AML2
Format: cell-based
Details: OCI-AML2, human acute myeloid leukemia; 72 hours incubation
Procedure: Compounds of the present invention were assayed for activity using a WST-1 cell proliferation assay and/or an Alamar Blue-based assay. The WST-1 cell proliferation assay employed was obtained from Chemicon International, Inc. of Temecula, Calif. Further information on assay materials and procedure is provided at www.chemicon.com. […]
metric: IC50 (µM)

- CC(C)C(=O)Nc1cccc(C(=O)Nc2nnc(CCc3ccccc3)s2)c1: 0.35

###

System: HCT-116
Experiment: Cell proliferation assay (WST-1 and/or Alamar Blue), HCT-116
Format: cell-based
Conditions: Homo sapiens; HCT-116, colorectal carcinoma; 72 hours incubation
metric: IC50 (µM)

• CC(C)C(=O)Nc1cccc(C(=O)Nc2nnc(CCc3ccccc3)s2)c1 [Compound A] = 17.3

###

Test system: MOLT-4
Assay: Cell proliferation assay (WST-1 and/or Alamar Blue), MOLT-4
Format: cell-based
Details: MOLT-4, human T-cell derived lymphoblastic leukemia; 72 hours incubation
metric: IC50 (µM)

- CC(C)C(=O)Nc1cccc(C(=O)Nc2nnc(CCc3ccccc3)s2)c1: 0.34

###

System: A549
Test: Cell proliferation assay (WST-1 and/or Alamar Blue), A549
Type: cell-based
Conditions: Homo sapiens; A549, lung carcinoma; 72 hours incubation
Protocol: Compounds of the present invention were assayed for activity using a WST-1 cell proliferation assay and/or an Alamar Blue-based assay. The WST-1 cell proliferation assay employed was obtained from Chemicon International, Inc. of Temecula, Calif. Further information on assay materials and procedure is provided at www.chemicon.com. […]
metric: IC50

• CC(C)C(=O)Nc1cccc(C(=O)Nc2nnc(CCc3ccccc3)s2)c1 = 19.1 µM
